test: Primary qHTS for inhibitors of nuclear receptor binding SET domain protein 2 (NSD2) in an isogenic RCH-ACV NSD2 p.E1099K mutant (9B) (AID 1645876); conditions: RCH-ACV (leukaemia line) NSD2 E1099K (9B) viability, CellTiter-Glo, 72 h; series mostly up to 44.9 µM; further: nearly all actives have a fitted effect of over 70% in size
Inconclusive results are not listed. Calls of active or inactive are those of the source. The call rests on the fitted dose curve; in most records, active means well fitted inhibition curve with a large enough effect; inconclusive means small, poorly fitted or top-dose-only effect; inactive means flat fitted curve, though single readings scatter.
Classes used: active, inactive

Compound | Discrete Label
NC(=O)CS(=O)C(c1ccccc1)c1ccccc1 (configuration not stated) | inactive
CN(C)CCc1c[nH]c2cccc(OP(=O)(O)O)c12 | inactive
O=c1oc2ccccc2c(O)c1Cc1c(O)c2ccccc2oc1=O | active
CC(=O)C1CCOC1=O (configuration not stated) | inactive
CCOP(=S)(OCC)Oc1ccc2c(C)c(Cl)c(=O)oc2c1 | active
CNC(C)(C)Cc1ccccc1 | inactive
COc1cccc(C(=O)CCN[C@@H](C)[C@H](O)c2ccccc2)c1 | active
CN1CC[C@]23c4c5ccc(O)c4O[C@H]2[C@@H](O)CC[C@H]3[C@H]1C5 | inactive
CC(C)N(CCC(C(N)=O)(c1ccccc1)c1ccccn1)C(C)C (configuration not stated) | inactive
CCCCCCCCCC(=O)O[C@H]1CC[C@H]2[C@@H]3CCC4=CC(=O)CC[C@@H]4[C@H]3CC[C@]12C | inactive
COc1cc(OC)c(OC)cc1C=O | inactive
C[C@H](N)C(=O)c1ccccc1 | inactive

* * *

test system: DFO2036; assay: qHTS profiling for inhibitors of Plasmodium falciparum proliferation (AID 504749); further: nearly all actives have a fitted effect of over 60% in size; conditions: P. falciparum in erythrocytes, SYBR Green DNA, 72 h; series mostly up to 28.7 µM
Results filed as inconclusive are left out. Active and inactive are the calls of the source. The call rests on the fitted dose curve; in most records, active means well fitted inhibition curve with a large enough effect; inconclusive means small, poorly fitted or top-dose-only effect; inactive means flat fitted curve, though single readings scatter.
Outcomes: t = active, f = inactive

Compound | Discrete Label
CNC(C)(C)Cc1ccccc1 | f
COP(=S)(OC)Oc1ccc(S(=O)(=O)N(C)C)cc1 | f
O=C1Nc2ccc(Cl)cc2C(c2ccccc2Cl)=NC1O (stereo unspecified) | f
COc1ccc2c(c1)C13CCCC[C@@H]1C(C2)N(C)CC3 (stereo partly specified) | f
CN1CCC(O)(c2ccc(F)cc2)C(C(=O)c2ccc(F)cc2)C1 (stereo unspecified) | f
COP(=S)(OC)SCN1C(=O)c2ccccc2C1=O | f
O=C1OC(c2ccc(O)c(S(=O)(=O)O)c2)(c2ccc(O)c(S(=O)(=O)O)c2)c2c(Br)c(Br)c(Br)c(Br)c21 | f
O=C1c2ccccc2C(=O)C1C(=O)C(c1ccccc1)c1ccccc1 | f
O=C(O)CCCc1ccc(N(CCCl)CCCl)cc1 | f
CCC(C)(C)c1ccc(O)cc1 | f
Cc1ncsc1CCCl | f
O=P1(N(CCCl)CCCl)NCCCO1 (stereo unspecified) | f
Clc1cccc(SC2CCNCC2)n1 | f
CN1C(=O)C(O)N=C(c2ccccc2)c2cc(Cl)ccc21 (stereo unspecified) | f
Clc1ccc(C(c2ccc(Cl)cc2)C(Cl)(Cl)Cl)cc1 | f
C[C@](O)(CS(=O)(=O)c1ccc(F)cc1)C(=O)Nc1ccc(C#N)c(C(F)(F)F)c1 | f
CC(C)NC(C)C | f
CCCCCCC(=O)CCCCCC/C=C/C[C@@H](O)[C@H](O)[C@@](N)(CO)C(=O)O | f
O=c1[nH]oc2c1CCNC2 | f
CN1C[C@H](C(=O)N[C@]2(C)O[C@@]3(O)[C@@H]4CCCN4C(=O)[C@H](Cc4ccccc4)N3C2=O)C=C2c3cccc4[nH]cc(c34)C[C@H]21 | t
Oc1ccc(Cl)cc1 | f
CCCC(C)(COC(N)=O)COC(N)=O | f
O=C1c2ccccc2C(=O)c2ccccc21 | f
CC(C)(C)NCC(O)c1ccccc1Cl (stereo unspecified) | f
CN1C(=O)NC(=O)C(C)(C2=CCCCC2)C1=O (stereo unspecified) | f
NCCc1ccc(O)cc1 | f

* * *

system: Tov112D; assay: Primary qHTS to identify gynecologic anti-cancer compounds using libraries of approved drugs and bioactive compounds (AID 1345084); details: Gynecologic cancer cell panel viability, ATPlite luminescence, 48 h; series mostly up to 57.5 µM; further: nearly all actives have a fitted effect of over 55% in size
Inconclusive results are not listed. The source made the active and inactive calls. Calls come from the whole dose curve; as a rule, active = well fitted cell-killing curve with a large enough effect; inconclusive = small, poorly fitted or top-dose-only effect, or effect the other way; inactive = flat fitted curve, though single readings scatter.
Classes used: active, inactive

Compound | Discrete Label
CC(C)c1c(CN(C)C(C)Cc2ccccc2)n(C)n(-c2ccccc2)c1=O (stereo unspecified) | inactive
CC(Cc1ccccc1)NCCn1cnc2c1c(=O)n(C)c(=O)n2C (stereo unspecified) | inactive
CC(=O)NC1CCSC1=O (stereo unspecified) | inactive
COc1cccc2c1C(=O)c1c(O)c3c(c(O)c1C2=O)C[C@@](O)(C(=O)CO)CC3OC1CC(N2CCOC(OC)C2)C(O)C(C)O1 (stereo partly specified) | active
O=C1c2ccccc2C(=O)C1C(=O)C(c1ccccc1)c1ccccc1 | inactive
CCN[C@H](C)Cc1cccc(C(F)(F)F)c1 | inactive
CCN(CC)C(=O)[C@@H]1C=C2c3cccc4[nH]cc(c34)C[C@H]2N(C)C1 | inactive
CCCOC(=O)c1cncn1C(C)c1ccccc1 (stereo unspecified) | inactive
C[C@@H](N)[C@@H](O)c1ccccc1 | inactive
CC(C)(N)Cc1ccccc1Cl | inactive
NNc1ccccc1 | inactive
COP(=S)(OC)Oc1ccc(SC)c(C)c1 | inactive
NC(=O)c1cc([N+](=O)[O-])cc([N+](=O)[O-])c1 | inactive
Nc1ccccc1 | inactive
C[C@@H]1CC2=CC(=O)CC[C@@H]2[C@H]2CC[C@@]3(C)[C@@H](CC[C@]3(C)O)[C@@H]21 | inactive
CC(C)c1cccc(C(C)C)c1O | inactive
C[C@H]1[C@@H]2Cc3ccc(O)cc3[C@@]1(C)CCN2C | inactive
c1ccc2c(c1)sc1ccccc12 | inactive
COP(=S)(OC)SCN1C(=O)c2ccccc2C1=O | inactive
COP(=S)(OC)Oc1ccc(S(=O)(=O)N(C)C)cc1 | inactive
CCN(CCO)CCn1c(Cc2ccccc2)nc2c1c(=O)n(C)c(=O)n2C | inactive

* * *

Measured Potency accompanies every entry in the list below.
target: Glucocorticoid receptor (Homo sapiens) (UniProt P04150); assay: GR-EFC Redistribution (AID 451); settings: CHO-K1 GR-EFC translocation, beta-gal luminescence, 2 h; further: potency means the concentration at half of the fitted maximal effect
Sequence (P04150 whole entry, looked up): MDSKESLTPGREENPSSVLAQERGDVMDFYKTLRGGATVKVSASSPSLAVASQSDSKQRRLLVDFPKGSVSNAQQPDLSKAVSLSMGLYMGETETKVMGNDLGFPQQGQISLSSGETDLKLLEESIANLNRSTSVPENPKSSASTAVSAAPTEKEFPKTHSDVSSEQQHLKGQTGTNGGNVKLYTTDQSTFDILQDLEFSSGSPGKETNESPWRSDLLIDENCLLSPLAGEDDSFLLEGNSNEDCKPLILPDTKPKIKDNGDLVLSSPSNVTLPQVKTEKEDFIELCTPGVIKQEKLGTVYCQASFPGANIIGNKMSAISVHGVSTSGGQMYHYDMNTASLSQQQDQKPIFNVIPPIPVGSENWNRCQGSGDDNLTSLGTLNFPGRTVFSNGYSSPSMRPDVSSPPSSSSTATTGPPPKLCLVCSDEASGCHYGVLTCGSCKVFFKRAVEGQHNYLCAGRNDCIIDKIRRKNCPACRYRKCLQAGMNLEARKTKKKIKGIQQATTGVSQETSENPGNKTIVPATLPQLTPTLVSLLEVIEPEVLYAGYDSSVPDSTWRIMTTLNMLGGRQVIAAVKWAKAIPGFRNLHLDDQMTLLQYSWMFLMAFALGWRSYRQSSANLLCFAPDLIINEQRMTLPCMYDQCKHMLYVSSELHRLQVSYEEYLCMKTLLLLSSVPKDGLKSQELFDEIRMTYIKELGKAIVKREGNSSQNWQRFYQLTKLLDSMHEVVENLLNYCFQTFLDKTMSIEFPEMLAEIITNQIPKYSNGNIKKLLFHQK
Activity calls are given as the source filed them. Calls come from the whole dose curve.

Compound | Measurement Target | Potency
O=P1(N(CCCl)CCCl)NCCCO1 (stereo unspecified) | Glucocorticoid receptor (Homo sapiens) (UniProt P04150) | > 46 µM (inactive)
CNC(C)(C)Cc1ccccc1 | Glucocorticoid receptor (Homo sapiens) (UniProt P04150) | > 20.6 µM (inactive)
Cc1ncsc1CCCl | Glucocorticoid receptor (Homo sapiens) (UniProt P04150) | > 46 µM (inactive)
C=CCN1C[C@H](C)N([C@H](c2ccc(C(=O)N(CC)CC)cc2)c2cccc(OC)c2)C[C@H]1C | Glucocorticoid receptor (Homo sapiens) (UniProt P04150) | > 46 µM (inactive)
CCC1(CC)C(=O)C=CNC1=O | Glucocorticoid receptor (Homo sapiens) (UniProt P04150) | > 20.6 µM (inactive)
COc1ccc2c(c1)C13CCCC[C@@H]1C(C2)N(C)CC3 (stereo partly specified) | Glucocorticoid receptor (Homo sapiens) (UniProt P04150) | > 20.6 µM (inactive)

* * *

test: Primary qHTS to identify inhibitors of SARS-CoV-2 cell entry (AID 1645846); conditions: SARS-CoV-2 pseudovirus cell entry assay, luminescence; at 57.1 µM (top of the series) unless noted; further: nearly all actives have a fitted effect of over 45% in size
Results filed as inconclusive are left out.
Please use label 1 whenever activity change, negative = inhibition is not below -20%, and label 0 whenever it is.

Compound | Discrete Label
COCCCN1CCC(NC(=O)c2cc(Cl)c(N)c3c2OCC3)CC1 | label 1
C=CCC1(C(C)CC)C(=O)NC(=O)NC1=O (stereo unspecified) | label 1
NC(=O)c1cccnc1 | label 1
CCCCC[C@H](O)/C=C/[C@@H]1[C@H]2C/C(=C/CCCC(=O)O)O[C@H]2C[C@H]1O | label 0
O=C(C1CCCCC1)N1CC(=O)N2CCCc3ccccc3C2C1 (stereo unspecified) | label 1
Cc1cc2c(cc1CC(=O)c1sccc1S(=O)(=O)Nc1onc(C)c1Cl)OCO2 | label 0

* * *

molecular target: Voltage-gated inwardly rectifying potassium channel KCNH2 (Homo sapiens); assay: qHTS Assay for Small Molecule Inhibitors of the Human hERG Channel Activity (AID 588834); settings: U2OS BacMam hERG, FluxOR thallium flux fluorescence; series mostly up to 46.1 µM;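 further: U2OS cells transduced with hERG by BacMam; top concentration of the series differs between compounds; on the % scale 0 is the no-effect control and ±100 the full control effect; lower thallium flux fluorescence means stronger hERG block; nearly all actives have a fitted effect of over 50% in size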
Records with an inconclusive call do not appear. Active and inactive are the calls of the source. Calls come from the whole dose curve; as a rule, active = well fitted inhibition curve with a large enough effect; inconclusive = small, poorly fitted or top-dose-only effect; inactive = flat fitted curve, though single readings scatter.

Line Notation | Measurement Target | outcome
COc1cc(OC)c(OC)cc1C=O | Voltage-gated inwardly rectifying potassium channel KCNH2 (Homo sapiens) | inactive
O=C1CN=C(c2ccccc2)c2cc([N+](=O)[O-])ccc2N1 | Voltage-gated inwardly rectifying potassium channel KCNH2 (Homo sapiens) | inactive
O=C(N/N=C/c1ccc([N+](=O)[O-])o1)c1cc([N+](=O)[O-])cc([N+](=O)[O-])c1O | Voltage-gated inwardly rectifying potassium channel KCNH2 (Homo sapiens) | inactive
C[C@@H]1O[C@@H]1P(=O)(O)O | Voltage-gated inwardly rectifying potassium channel KCNH2 (Homo sapiens) | inactive
